System: Escherichia coli TOP10;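 note: peptides expressed intracellularly from a pBAD plasmid library in pooled LB shake-flask culture, induced with 0.3% L-arabinose, DNA abundance read by NGS, three biological replicates, DESeq2 with apeglm shrinkage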
Assay: shrunken log2 fold change of peptide-encoding DNA abundance (4.5 h post-induction vs induction); higher = less antimicrobial activity (less host growth inhibition)
Conditions: time post-induction: 4.5 h; library: site-saturation at positions 5, 18, 19, 20
Category key, based on recorded shrunken log2 fold change: lower bin (below -0.2), middle bin (-0.2 to below 0.2), upper bin (0.2 or more)

RRIRCRPPRLPRPRPRPCQKPRP :: middle bin
RRIRGRPPRLPRPRPRPIPDPRP :: upper bin
RRIRRRPPRLPRPRPRPMCAPRP :: middle bin

Req: Bin this entry: "RRIRMRPPRLPRPRPRPAIKPRP"
Resp: middle bin

Req: Bin this entry: "RRIRSRPPRLPRPRPRPHTGPRP"
Resp: lower bin

Req: Bin this entry: "RRIRTRPPRLPRPRPRPPIEPRP"
Resp: middle bin

Req: Bin this entry: "RRIRKRPPRLPRPRPRPTGEPRP"
Resp: upper bin

Req: Bin this entry: "RRIRNRPPRLPRPRPRPGNHPRP"
Resp: lower bin

Req: Bin this entry: "RRIRHRPPRLPRPRPRPIHTPRP"
Resp: middle bin

Req: Bin this entry: "RRIRKRPPRLPRPRPRPYDCPRP"
Resp: middle bin

Req: Bin this entry: "RRIRMRPPRLPRPRPRPMEWPRP"
Resp: upper bin

Req: Bin this entry: "RRIRKRPPRLPRPRPRPIKIPRP"
Resp: middle bin

Req: Bin this entry: "RRIRIRPPRLPRPRPRPHDPPRP"
Resp: lower bin

Req: Bin this entry: "RRIRYRPPRLPRPRPRPQCQPRP"
Resp: middle bin
